study.target: T1, Cynomolgus monkey CD1a protein (Cynomolgus monkey)
T1 chain: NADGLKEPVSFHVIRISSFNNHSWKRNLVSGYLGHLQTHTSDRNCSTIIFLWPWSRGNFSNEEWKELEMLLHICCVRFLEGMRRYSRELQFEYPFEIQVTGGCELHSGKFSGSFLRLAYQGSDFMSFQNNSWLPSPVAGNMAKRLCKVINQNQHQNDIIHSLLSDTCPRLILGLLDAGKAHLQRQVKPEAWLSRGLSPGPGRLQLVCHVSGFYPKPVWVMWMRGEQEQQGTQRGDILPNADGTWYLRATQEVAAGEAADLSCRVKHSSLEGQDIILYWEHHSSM
protocol.description: ELISA, 1 µg/ml antibody
value.type: Optical Density (OD)

>  <binder>
110 (VR12112) (antibody, V domains shown, also called OX110; antibody 110) VH: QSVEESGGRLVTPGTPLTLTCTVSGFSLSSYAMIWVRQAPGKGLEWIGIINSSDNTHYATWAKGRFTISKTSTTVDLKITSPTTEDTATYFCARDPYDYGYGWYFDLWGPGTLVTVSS VL: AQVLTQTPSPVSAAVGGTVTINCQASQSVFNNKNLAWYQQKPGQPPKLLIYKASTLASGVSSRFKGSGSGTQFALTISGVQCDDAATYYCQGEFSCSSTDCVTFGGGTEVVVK

>  <experimental.result>
0.94

$$$$
>  <binder>
77A (VR11851) (antibody, V domains shown, also called OX77a; antibody 77a) VH: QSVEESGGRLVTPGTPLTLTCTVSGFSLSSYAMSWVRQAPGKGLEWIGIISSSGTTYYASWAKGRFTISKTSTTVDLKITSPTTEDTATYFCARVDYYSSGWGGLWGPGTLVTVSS VL: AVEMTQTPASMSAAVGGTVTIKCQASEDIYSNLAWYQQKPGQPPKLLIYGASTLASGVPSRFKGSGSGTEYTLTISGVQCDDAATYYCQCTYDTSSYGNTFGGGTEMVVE

>  <experimental.result>
0.43

$$$$
>  <binder>
16 (VR11834) (antibody, V domains shown, also called OX16; antibody 16) VH: EVQLVESGGGLVKPGGSLKLSCAASGFTFSNYAMSWVRQTPEKRLEWVAAINSNGGSAYYPDTVKDRFTISRDNAKNTLYLQMSSLRSEDTALYYCARRFYYDYGWFAYWGQGTLVTVSS VL: DIVLTQSPASLSASVGETVTITCRASENIDSYLAWYQQKQGKSPQLLVYAATLLADGVPSRFSGSGSGTQYSLKINSLQSEDVARYYCQHYYSSPWTFGGGTKLEIK

>  <experimental.result>
0.58

$$$$
>  <binder>
111 (VR12113) (antibody, V domains shown, also called OX111) VH: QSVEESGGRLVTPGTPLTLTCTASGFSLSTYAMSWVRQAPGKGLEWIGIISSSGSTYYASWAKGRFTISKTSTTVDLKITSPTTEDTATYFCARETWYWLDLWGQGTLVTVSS VL: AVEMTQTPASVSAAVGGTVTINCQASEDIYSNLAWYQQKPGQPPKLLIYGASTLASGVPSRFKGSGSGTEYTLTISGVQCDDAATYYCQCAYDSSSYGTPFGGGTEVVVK

>  <experimental.result>
0.69

$$$$
>  <binder>
116 (VR12117) (antibody, V domains shown, also called OX116) VH: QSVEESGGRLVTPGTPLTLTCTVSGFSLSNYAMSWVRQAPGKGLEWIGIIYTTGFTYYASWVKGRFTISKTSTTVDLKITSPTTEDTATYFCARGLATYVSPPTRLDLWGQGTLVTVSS VL: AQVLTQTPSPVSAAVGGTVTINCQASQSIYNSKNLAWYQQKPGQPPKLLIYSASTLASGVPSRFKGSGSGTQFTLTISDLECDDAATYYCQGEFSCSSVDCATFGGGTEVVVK

>  <experimental.result>
0.14

$$$$
